# TARGET UNDER TEST: T1, human CCL21 (human, UniProt O00585 24-134)
# T1 sequence: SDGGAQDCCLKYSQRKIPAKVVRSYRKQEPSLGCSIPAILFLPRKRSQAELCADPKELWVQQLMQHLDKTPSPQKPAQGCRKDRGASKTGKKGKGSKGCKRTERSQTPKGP
# ASSAY EXPLANATION: cell-based or functional assay
PROPERTY LABEL: % inhibition of migration, recombinant hCCL21, H9 cells, IgG at 2uM (1st cell) (%)
Please respond with the number in % and leave the unit unwritten.

The binder MOR08389_g3-23_g3j (antibody, human IgG1, lambda, V domains shown) VH: EVQLLESGGGLVQPGGSLRLSCAASGFTFNSYSMSWVRQAPGKGLEWVSAISMEGYSKSYADSVKGRFTISRDNSKNTLYLQMNSLRAEDTAVYYCARGYGYYFDVWGQGTLVTVSS VL: SYELTQPLSVSVALGQTARITCGGDSIGSQYASWYQQKPGQAPVLVIYDDNERPSGIPERFSGSNSGNTATLTISRAQAGDEADYYCSSWDMDAVNVFGGGTKLTVLG showed % inhibition of migration, recombinant hCCL21, H9 cells, IgG at 2uM (1st cell) equal to 94
